test: Drug metabolism in human liver microsomes assessed as stability after 5 mins relative to control in presence of reduced GSH by liquid chromatography-tandem mass spectrometry; format: ADME
Measurement Label: remaining at 5 min (%)

| Molecule | Unit Text | Measurement |
| --- | --- | --- |
| COC1=C2C[C@@H](C)C[C@H](OC)[C@H](O)[C@@H](C)/C=C(\C)[C@H](OC(N)=O)[C@@H](OC)/C=C\C=C(/C)C(=O)NC(=CC1=O)C2=O [GELDANAMYCIN] | % | 75.3 |

----------
tested on: Liver microsome; test: Drug level in human liver microsomes treated with 1 uM 17-DMAGby liquid chromatography-tandem mass spectrometry in presence of 1 uM sulfaphenazole CYP2C9 inhibitor; assay type: ADME

| Molecule | Drug metabolism |
| --- | --- |
| CO[C@H]1/C=C\C=C(/C)C(=O)NC2=CC(=O)C(NCCN(C)C)=C(C[C@@H](C)C[C@H](O)[C@H](O)[C@@H](C)/C=C(\C)[C@@H]1OC(N)=O)C2=O | metabolite_detected |
| CO[C@H]1/C=C\C=C(/C)C(=O)NC2=CC(=O)C(NC(O)CN(C)C)=C(C[C@@H](C)C[C@H](OC)[C@H](O)[C@@H](C)/C=C(\C)[C@@H]1OC(N)=O)C2=O (stereo not given in full) | metabolite_detected |
| CO[C@H]1C[C@H](C)CC2=C(NCCN(C)C)C(=O)C=C(NC(=O)/C(C)=C/C=C\[C@H](O)[C@@H](OC(N)=O)/C(C)=C/[C@H](C)[C@H]1O)C2=O | metabolite_detected |
| CO[C@H]1/C=C\C=C(/C)C(=O)NC2=CC(=O)C(NC(O)CN(C)C)=C(C[C@@H](CO)C[C@H](OC)[C@H](O)[C@@H](CO)/C=C(\C)[C@@H]1OC(N)=O)C2=O (stereo not given in full) | metabolite_detected |
| CO[C@H]1/C=C\C=C(/C)C(=O)NC2=CC(=O)C(NCCN(C)C)=C(C[C@@H](C)C[C@H](OC)[C@H](O)[C@@H](C)/C=C(\CO)[C@@H]1OC(N)=O)C2=O | metabolite_detected |
